- STUDY_TARGET: T1, mIL2-his (mouse, UniProt P04351 21-169)
- T1 construct: also called wild-type mouse IL-2 (with a his-tag); not shown: his-tag
- T1 sequence (looked up): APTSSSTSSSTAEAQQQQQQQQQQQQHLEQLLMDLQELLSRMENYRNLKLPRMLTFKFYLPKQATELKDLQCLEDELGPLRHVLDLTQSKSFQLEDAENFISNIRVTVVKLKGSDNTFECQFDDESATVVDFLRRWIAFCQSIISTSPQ
- MEASUREMENT_PROTOCOL: BLI ForteBio, Ab on Protein A sensor
Recorded koff values for a group of binders are listed next.

{"BINDER": "hS4B6-H6K3 (antibody, V domains shown, full antibody) VH: QVQLVQSGAEVKKPGATVKISCKVSGDTITAYYLHWVRQAPGQGLEWIGRIDPEDDSTKYAENFKNRVTITADTSTNTAYMELSSLRSEDTAVYYCTTVTFYYSRELRWFAYWGQGTLVTVSS VL: DIVLTQSPATLSLSPGERATLSCQASQDIGNYLSWYQQKPGQAPRLLIYSATSLADGIPARFSGSRSGTDYTLTISSLEPEDFAVYYCLQHYSTPYTFGQGTKLEIK", "koff, s⁻¹": 0.00018}
{"BINDER": "hS4B6-H1K1 (antibody, V domains shown, full antibody) VH: QVQLQESGPGLVKPSETLSLTCTVSGDTITAYYLHWIRQPPGKGLEWIGRIDPEDDSTKYAENFKNRVTISVDTSKNQFSLKLSSVTAADTAVYYCTTVTFYYSRELRWFAYWGQGTTVTVSS VL: DIVLTQSPGTLSLSPGERATLSCQASQDIGNYLSWYQQKPGQAPRLLIYSATSLADGIPDRFSGSRSGTDYTLTISRLEPEDFAVYYCLQHYSTPYTFGQGTKVEIK", "koff, s⁻¹": 0.000719}
{"BINDER": "S4B6 chimeric antibody (antibody, human IgG1, V domains shown, also called chS4B6) VH: EVQLQESGAELVRPGTSVKLSCKVSGDTITAYYLHFVRQRPGQGLEWIGRIDPEDDSTKYAENFKNKATFTADASSNTAYLRLSSLTSEDTATYFCTTVTFYYSRELRWFAYWGQGTLVTVSS VL: DIQVTQSPASLSASLEEIVTITCQASQDIGNYLSWYQQKLGKSPQLLIHSATSLADGVPSRFSGSRSGTQYSLKINRLQVEDTGIYYCLQHYSTPYTFGAGTKLELK", "koff, s⁻¹": 0.000182}
{"BINDER": "hS4B6-H3K3 (antibody, V domains shown, full antibody) VH: QVTLKESGPVLVKPTQTLTLTCTVSGDTITAYYLHWIRQPPGKALEWIGRIDPEDDSTKYAENFKNRLTFSADTSKNQVVLTMTNMDPVDTATYYCARVTFYYSRELRWFAYWGQGTLVTVSS VL: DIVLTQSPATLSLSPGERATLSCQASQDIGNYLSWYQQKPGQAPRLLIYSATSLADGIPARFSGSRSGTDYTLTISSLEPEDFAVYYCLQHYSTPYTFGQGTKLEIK", "koff, s⁻¹": 0.00265}

The values you see were collected from patent US20250346644A1.
